Origin of measurements: patent US11001561B2

system: pERK1/2 in KYSE520 cells; test: p-Erk cellular assay in KYSE520 (Mesoscale); type: cell-based; settings: 2 h, read-out: pERK1/2 in Cell KYSE520 IC50
PARAMETER: log10 IC50 (log10 of the value in nM)
Kindly note that the scale is log10 and the underlying IC50 is in nM.

Below: 6 compounds and their reported log10 IC50.
Which log10 IC50 is reported for this compound? Cc1c(N2CCC3(CCC[C@H]3N)CC2)nc(C)n(-c2cccc(Cl)c2Cl)c1=O [Compound 67b]
2.30

Query [2H]C([2H])([2H])c1c(N2CCC3(CC2)CO[C@@H](C)[C@H]3N)nc(C)n(-c2cccc(Cl)c2Cl)c1=O [Compound 63] next
2.67

Query Cc1c(N2CCC3(CC2)Cc2ccccc2[C@H]3N)nc(C)n(-c2cccc(Cl)c2Cl)c1=O (atropisomer, axis not shown) [Compound 74b] next
2.80

Query [2H]C([2H])([2H])c1c(N2CCC3(CC2)CO[C@@H](C)[C@H]3N)nc(C)n(-c2cccc(Cl)c2Cl)c1=O (single isomer, unassigned) [Compound 63b] next
2.25

Query Cc1c(N2CCC3(CC2)Oc2cnccc2[C@@H]3N)nc(C)n(-c2cccc(Cl)c2Cl)c1=O (single isomer, unassigned) [Compound 80b] next
4.20

Query Cc1c(N2CCC3(CC2)Cc2ccccc2[C@H]3N)nc(C)n(-c2cccc(Cl)c2Cl)c1=O [Compound 74a] next
0.30

***
Which log10 IC50 is reported for this compound? `Cc1c(N2CCC3(CC2)c2ncccc2C[C@H]3N)nc(C)n(-c2cccc(Cl)c2Cl)c1=O`
2.92
